Where do these numbers come from? They come from the CheMixHub drug solubility set.

assay text: xn = mol fraction of the nth substance listed, in the solute-free solvent
assay conditions: 298.15 K; x2 = 0.8
The recorded solubility (g/100 g solution) of each item maps onto one of these classes: Low: < 0.8; Mid: ≥ 0.8 and < 3; High: ≥ 3

>  <compound>
CN1CCN(C(=O)OC2c3nccnc3C(=O)N2c2ccc(Cl)cn2)CC1 (centres undefined) + C1CCOC1 + O

>  <class name>
High

$$$$
>  <compound>
CCOC(=O)C1=CC2(CC)CCCN3CCc4c(n1c1ccccc41)C32 (centres undefined) + CCO + O

>  <class name>
Low

$$$$
>  <compound>
CC1(C)SC2C(NC(=O)C(NC(=O)N3CCNC3=O)c3ccccc3)C(=O)N2C1C(=O)O (centres undefined) + CO + CC(C)O

>  <class name>
Low

$$$$
>  <compound>
CN1CCN(C(=O)OC2c3nccnc3C(=O)N2c2ccc(Cl)cn2)CC1 (centres undefined) + CC(C)=O + O

>  <class name>
Mid

$$$$
>  <compound>
CN1CCN(C(=O)OC2c3nccnc3C(=O)N2c2ccc(Cl)cn2)CC1 (centres undefined) + CC#N + O

>  <class name>
High

$$$$
>  <compound>
O=C(CC(=O)c1ccccc1)c1ccccc1 + CC(C)O + O

>  <class name>
Mid

$$$$
>  <compound>
CN1CCN(C(=O)OC2c3nccnc3C(=O)N2c2ccc(Cl)cn2)CC1 (centres undefined) + CCO + O

>  <class name>
Mid

$$$$
>  <compound>
CC1(C)SC2C(NC(=O)C(NC(=O)N3CCNC3=O)c3ccccc3)C(=O)N2C1C(=O)O (centres undefined) + CCO + CC(C)O

>  <class name>
Low

$$$$
